target: F508del/F508del CFTR (Homo sapiens, UniProt P13569, DEL508-508); construct: cells isolated from CF patients with the homozygous mutation; endogenous in cells; assay: Trans-Epithelial Current Clamp (TECC) assay using primary human bronchial epithelial cells; details: primary hBE cells F508del/F508del; test corrector with co-corrector and potentiator, 18-24 hours; equivalent CFTR current
Sequence (P13569 with tags, fused parts or gaps DEL508-508): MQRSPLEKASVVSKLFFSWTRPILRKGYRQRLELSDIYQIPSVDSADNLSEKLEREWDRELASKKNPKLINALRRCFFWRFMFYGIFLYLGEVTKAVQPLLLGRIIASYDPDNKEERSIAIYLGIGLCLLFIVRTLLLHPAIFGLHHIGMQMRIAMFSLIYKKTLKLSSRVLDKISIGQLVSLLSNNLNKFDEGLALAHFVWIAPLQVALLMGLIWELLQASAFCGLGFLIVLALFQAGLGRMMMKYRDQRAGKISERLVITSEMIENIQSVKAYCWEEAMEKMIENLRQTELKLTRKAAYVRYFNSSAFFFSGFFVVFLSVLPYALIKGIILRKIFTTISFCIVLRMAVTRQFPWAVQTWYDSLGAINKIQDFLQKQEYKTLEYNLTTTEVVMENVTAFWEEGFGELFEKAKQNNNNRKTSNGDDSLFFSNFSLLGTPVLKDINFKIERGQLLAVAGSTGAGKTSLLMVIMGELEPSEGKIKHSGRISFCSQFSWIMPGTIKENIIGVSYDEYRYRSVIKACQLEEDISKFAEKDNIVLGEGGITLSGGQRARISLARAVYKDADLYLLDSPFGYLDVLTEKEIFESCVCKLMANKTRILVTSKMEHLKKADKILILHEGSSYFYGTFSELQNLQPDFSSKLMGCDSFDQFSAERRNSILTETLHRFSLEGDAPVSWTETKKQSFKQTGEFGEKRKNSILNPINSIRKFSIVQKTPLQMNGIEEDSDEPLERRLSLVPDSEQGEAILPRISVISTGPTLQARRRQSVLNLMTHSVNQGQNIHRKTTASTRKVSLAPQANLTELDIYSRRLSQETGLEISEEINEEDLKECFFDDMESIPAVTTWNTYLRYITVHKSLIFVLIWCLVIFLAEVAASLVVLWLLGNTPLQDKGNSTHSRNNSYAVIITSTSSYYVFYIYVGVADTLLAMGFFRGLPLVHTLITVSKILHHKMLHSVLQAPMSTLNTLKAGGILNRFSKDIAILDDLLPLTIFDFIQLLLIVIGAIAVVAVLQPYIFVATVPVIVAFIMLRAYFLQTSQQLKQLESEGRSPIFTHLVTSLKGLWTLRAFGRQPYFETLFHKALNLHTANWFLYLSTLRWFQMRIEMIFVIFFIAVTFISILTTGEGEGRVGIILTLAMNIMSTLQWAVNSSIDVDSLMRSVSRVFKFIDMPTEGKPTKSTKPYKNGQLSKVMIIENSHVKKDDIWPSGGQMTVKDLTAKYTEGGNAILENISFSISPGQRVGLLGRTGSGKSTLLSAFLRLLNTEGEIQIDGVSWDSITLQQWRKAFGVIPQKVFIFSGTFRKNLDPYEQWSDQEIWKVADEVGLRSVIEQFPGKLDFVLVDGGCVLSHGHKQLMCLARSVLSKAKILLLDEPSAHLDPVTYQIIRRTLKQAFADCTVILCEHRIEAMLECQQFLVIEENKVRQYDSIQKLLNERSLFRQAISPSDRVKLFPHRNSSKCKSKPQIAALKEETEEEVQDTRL
MEASURED ATTRIBUTE: EC50 (nM)

MOLECULE: COc1ccc(C)cc1[C@]1(C(=O)NS(=O)(=O)c2cccc3nc(C)ccc23)C[C@H](c2ccccc2)CO1
EC50 / nM: 38.3
--
MOLECULE: COc1cccc([C@H]2CO[C@@](C(=O)NS(=O)(=O)c3cccc4nc(C)ccc34)(c3cc(C)ccc3OC)C2)c1
EC50 / nM: 59.9
--
MOLECULE: COc1cccc([C@@H]2CO[C@@](C(=O)NS(=O)(=O)c3cccc4nc(C)ccc34)(c3cc(C)ccc3OC)C2)c1
EC50 / nM: 11.1

(A) CCc1ccc(Oc2cccnc2OC)c([C@@]2(C(=O)NS(=O)(=O)c3cccc4nc(C)ccc34)CCCO2)c1
(B) COc1ccc(C)cc1[C@@]1(C(=O)NS(=O)(=O)c2cccc3nc(C)ccc23)C[C@@H](OC)CO1
(C) CCc1ccc(Oc2cccnc2OC(F)F)c([C@@]2(C(=O)NS(=O)(=O)c3cccc4nc(C)ccc34)CCCO2)c1
(D) COc1ccc(C)cc1[C@@]1(C(=O)NS(=O)(=O)c2cccc3nc(C)ccc23)C[C@H](OC)CO1
(E) COc1ccc(C)cc1C1(C(=O)NS(=O)(=O)c2cccc3nc(C)ccc23)CCC(c2ccccc2)O1 (stereo in doubt)
Thanks in advance: please rank these 5 entries by EC50, highest to lowest. Lab note: record answer as labels in requested order. D, B, A, E, C
(D: 1100 nM, B: 164 nM, A: 30.6 nM, E: 11.7 nM, C: 4.6 nM)

(a) COc1ccc(C)cc1[C@@]1(C(=O)NS(=O)(=O)c2cccc3nc(C)ccc23)C[C@@H](C)CO1
(b) COc1ccc(C)cc1[C@@]1(C(=O)NS(=O)(=O)c2cccc3nc(N)ccc23)CC(C)(C)CO1
Pick one, a or b : lowest reported EC50. Return value: the label identifying the chosen record. a
(a: 33 nM, b: 443 nM)

(a) CCc1ccc(Oc2ccccc2)c([C@@]2(C(=O)NS(=O)(=O)c3cccc4nc(C)ccc34)CCCO2)c1
(b) CCOc1ccc(C)cc1[C@]1(C(=O)NS(=O)(=O)c2cccc3nc(C)ccc23)CCCO1
Pick one, a or b : lowest reported EC50. Return value: the label identifying the chosen record. a
(a: 20 nM, b: 1710 nM)

====

biological target: F508delCFTR (Homo sapiens, UniProt P13569, DEL508-508); construct: expressed in transfected cells; host or cells: CFBE41o- human lung derived epithelial cell line, doxycycline-induced expression; test: Cell Surface Expression-Horse Radish Peroxidase (CSE-HRP) assay in CFBE41o-F508delCFTR-HRP cells; type: cell-based; conditions: without co-corrector; CFBE41o-F508delCFTR-HRP cells, 18-24 hours at 33° C.; read-out: EC50 (without co-corrector)
Sequence (P13569 with tags, fused parts or gaps DEL508-508): as above
pEC50: −log10 of the molar value.
MEASURED ATTRIBUTE: pEC50

These solved cases illustrate the format of a correct answer.
COMPOUND: CCOc1ccc(CC)cc1[C@]1(C(=O)NS(=O)(=O)c2cccc3nc(C)ccc23)CCCO1
TESTED TARGET: F508delCFTR (Homo sapiens, UniProt P13569, DEL508-508)
MEASURED ATTRIBUTE: pEC50
TEST VALUE: 5.41
--
COMPOUND: COc1ccc(C)cc1[C@@]1(C(=O)NS(=O)(=O)c2cccc3nc(C)ccc23)C[C@](C)(OC)CO1
TESTED TARGET: F508delCFTR (Homo sapiens, UniProt P13569, DEL508-508)
MEASURED ATTRIBUTE: pEC50
TEST VALUE: 5.58
--
COMPOUND: CCc1ccc(Oc2cccnc2OC)c([C@]2(C(=O)NS(=O)(=O)c3cccc4nc(C)ccc34)CCCO2)c1
TESTED TARGET: F508delCFTR (Homo sapiens, UniProt P13569, DEL508-508)
MEASURED ATTRIBUTE: pEC50
TEST VALUE: 5.44

(a) CCc1ccc(Oc2cccnc2OC(F)F)c([C@]2(C(=O)NS(=O)(=O)c3cccc4nc(C)ccc34)CCCO2)c1
(b) CCc1ccc(Oc2ccccc2)c([C@@]2(C(=O)NS(=O)(=O)c3cccc4nc(C)ccc34)CCCO2)c1
(c) CCc1ccc(OC[C@H](C)OC)c([C@]2(C(=O)NS(=O)(=O)c3cccc4nc(C)ccc34)CCCO2)c1
Thanks in advance: please rank these 3 entries by pEC50, highest to lowest. Lab note: record answer as labels in requested order. b, a, c

====

molecular target: F508delCFTR (Homo sapiens, UniProt P13569, DEL508-508); construct: expressed in transfected cells; host or cells: CFBE41o- human lung derived epithelial cell line, doxycycline-induced expression; experiment: Cell Surface Expression-Horse Radish Peroxidase (CSE-HRP) assay in CFBE41o-F508delCFTR-HRP cells; assay type: cell-based; details: without co-corrector; CFBE41o-F508delCFTR-HRP cells, 18-24 hours at 33° C.; read-out: EC50 (without co-corrector)
pEC50: −log10 of the molar value.
MEASURED ATTRIBUTE: pEC50

MOLECULE: COc1ccc(C)cc1[C@]1(C(=O)NS(=O)(=O)c2cccc3nc(C)ccc23)CC2(CC2)CO1 [Example 16]
TEST VALUE: 5.32

(a) COc1ccc(C)cc1[C@@]1(C(=O)NS(=O)(=O)c2cccc3nc(C)ccc23)C[C@H](C)CO1 [Example 20]
(b) COc1ccc(C)cc1[C@@]1(C(=O)NS(=O)(=O)c2cccc3nc(C)ccc23)C[C@H](c2ccccc2)CO1 [Example 33]
(c) COc1ccc([C@H]2CO[C@@](C(=O)NS(=O)(=O)c3cccc4nc(C)ccc34)(c3cc(C)ccc3OC)C2)cc1 [Example 45]
Arrange the 3 entries by pEC50 so the values rise. Lab note: record answer as labels in requested order. b, a, c
(b: 5.64, a: 5.91, c: 6.21)

====

biological target: F508del/F508del CFTR (Homo sapiens, UniProt P13569, DEL508-508); construct: cells isolated from CF patients with the homozygous mutation; endogenous in cells; host or cells: primary human bronchial epithelial (hBE) cells from CF patients homozygous for F508del; experiment: Trans-Epithelial Current Clamp (TECC) assay using primary human bronchial epithelial cells; format: cell-based; conditions: maximum percent activity relative to positive control (co-corrector 0.15 μM + potentiator 0.45 μM = 100%)
MEASURED ATTRIBUTE: Emax (% Dual)

MOLECULE: CCc1ccc(Oc2ccccc2)c(C2(C(=O)NS(=O)(=O)c3cccc4nc(C)ccc34)CCCO2)c1 (stereo not shown)
TESTED TARGET: F508del/F508del CFTR (Homo sapiens, UniProt P13569, DEL508-508)
Emax (% Dual): 229

MOLECULE: COc1ccc(C)cc1[C@@]1(C(=O)NS(=O)(=O)c2cccc3nc(C)ccc23)CC[C@@H](c2ccccc2)O1
TESTED TARGET: F508del/F508del CFTR (Homo sapiens, UniProt P13569, DEL508-508)
Emax (% Dual): 339

MOLECULE: COc1ccccc1[C@@H]1CO[C@@](C(=O)NS(=O)(=O)c2cccc3nc(C)ccc23)(c2cc(C)ccc2OC)C1
TESTED TARGET: F508del/F508del CFTR (Homo sapiens, UniProt P13569, DEL508-508)
Emax (% Dual): 239

(a) COc1ccc(C)cc1[C@@]1(C(=O)NS(=O)(=O)c2cccc3nc(C)ccc23)C[C@](C)(OC)CO1
(b) CCc1ccc(Oc2cccnc2OC(F)F)c([C@]2(C(=O)NS(=O)(=O)c3cccc4nc(C)ccc34)CCCO2)c1
Pick one, a or b : lowest reported Emax (% Dual). Return value: the label identifying the chosen record. b
(b: 130 % Dual, a: 197 % Dual)

====

molecular target: F508delCFTR (Homo sapiens, UniProt P13569, DEL508-508); construct: expressed in transfected cells; host or cells: CFBE41o- human lung derived epithelial cell line, doxycycline-induced expression; experiment: Cell Surface Expression-Horse Radish Peroxidase (CSE-HRP) assay in CFBE41o-F508delCFTR-HRP cells; format: cell-based; conditions: without co-corrector; normalized to on-plate positive control; read-out: Maximum % activity (without co-corrector)
MEASURED ATTRIBUTE: Emax (%)

These solved cases illustrate the format of a correct answer.
COMPOUND: CCOc1ccc(C)cc1[C@@]1(C(=O)NS(=O)(=O)c2cccc3nc(C)ccc23)CCCO1 (single isomer, unassigned)
TEST VALUE: 602

COMPOUND: CCc1ccc(Oc2cccnc2OC)c([C@]2(C(=O)NS(=O)(=O)c3cccc4nc(C)ccc34)CCCO2)c1
TEST VALUE: 141

COMPOUND: COc1ccc(C)cc1[C@]1(C(=O)NS(=O)(=O)c2cccc3nc(C)ccc23)CC[C@H](c2ccccc2)O1
TEST VALUE: 542

COMPOUND: COc1ccc(C)cc1[C@@]1(C(=O)NS(=O)(=O)c2cccc3nc(C)ccc23)C[C@](C)(OC)CO1
TEST VALUE: 301

COMPOUND: COc1ccc(C)cc1[C@@]1(C(=O)NS(=O)(=O)c2cccc3nc(C)ccc23)C[C@@H](C)CO1
TEST VALUE: 339

COMPOUND: COc1ccc(C)cc1[C@@]1(C(=O)NS(=O)(=O)c2cccc3nc(C)ccc23)CC[C@@H](c2ccccc2)O1
TEST VALUE: 702

COMPOUND: CCc1ccc(Oc2ccccc2)c(C2(C(=O)NS(=O)(=O)c3cccc4nc(C)ccc34)CCCO2)c1 (centres unmarked)
TEST VALUE: 931

COMPOUND: CCc1ccc(Oc2ccccc2)c([C@@]2(C(=O)NS(=O)(=O)c3cccc4nc(C)ccc34)CCCO2)c1
TEST VALUE: 726

COMPOUND: COc1ccccc1[C@@H]1CO[C@@](C(=O)NS(=O)(=O)c2cccc3nc(N)ccc23)(c2cc(C)ccc2OC)C1
TEST VALUE: 705

COMPOUND: CCOc1ccc(C)cc1[C@@]1(C(=O)NS(=O)(=O)c2cccc3nc(C4CC4)ccc23)CCCO1
TEST VALUE: 712

(P) COc1cccc([C@@H]2CO[C@@](C(=O)NS(=O)(=O)c3cccc4nc(C)ccc34)(c3cc(C)ccc3OC)C2)c1
(Q) COc1ccc(C)cc1C1(C(=O)NS(=O)(=O)c2cccc3nc(C)ccc23)CCC(c2ccccc2)O1 (stereo in doubt)
Pick one, P or Q : lowest reported Emax. Return value: the label identifying the chosen record. Q
(Q: 509%, P: 751%)

(1) CCc1ccc(Oc2cccnc2OC(F)F)c(C2(C(=O)NS(=O)(=O)c3cccc4nc(C)ccc34)CCCO2)c1 (centres unmarked)
(2) COc1ccc(C)cc1[C@@]1(C(=O)NS(=O)(=O)c2cccc3nc(C)ccc23)C[C@H](C)CO1
Given the listed records, identify the one among 1 and 2 with higher Emax. Return value: the label identifying the chosen record. 1
(1: 857%, 2: 366%)
